- Tested on: 786-0 renal
// classify into Yes = active, No = inactive

Use these answered entries as a reference point.
Query string: Write down the call the test reported for this molecule. Item: CSC1=Nc2c(c(C)c(-c3ccccc3)n2COC(CO)CO)C2=NC(=O)C(C)N12 (centres undefined)
Result string: No

Query string: Tell me the recorded outcome of this test for CCOP(=O)(CCP(=O)(OCC)OCC)OCC.C[CH2][Sn]([Cl])([Cl])[CH2]C .
Result string: No

Query string: Which result was noted for this molecule in the test: O=C1C2=C(C(=O)c3c(O)ccc(O)c31)N(c1ccc(N3CCOCC3)nc1)Cc1ccccc1O2
Result string: Yes

Now take the following molecule into account.
Query string: Recorded call for Nc1nc(N)c2cc(CNc3ccc(Cl)c(Cl)c3)ccc2n1 ?
Result string: Yes

###

- Test system: SR leukemia
- Run Description: NCI tumour cell line growth inhibition, 48 h
Measured Property: TGI

The examples below pair each entry with its known result.
Query string: TGI of OC(c1cc(C(O)(C(F)(F)F)C(F)(F)F)ncn1)(C(F)(F)F)C(F)(F)F on SR leukemia?
Result string: > 10 µM

Query string: Fill in the recorded TGI for this compound, with SR leukemia as test system: O=C1C=C2S[C@H]3C[C@]2(C=C1Br)c1c(c(O)c2c4c1=NCCC=4C=N2)N3
Result string: > 100 µM

Query string: Give SR leukemia TGI for CC(/C=C/c1ncccc1OCCCCCC(=O)O)=N\NC1=NCCN1
Result string: > 100 µM

Query string: Query TGI on SR leukemia for O=C(CCCn1c2c(sc3ncccc32)c(=O)n2nnc(-c3ccccc3)c12)NCCc1cnc[nH]1
Result string: 6.14 µM

Query string: Short answer please: TGI, SR leukemia, entry CCCCCCCCCc1cc(O)c(O)cc1CCCCCCCCC
Result string: > 10 µM

Query string: Give TGI (SR leukemia) of the following compound: Cc1cccc(CN(C)c2ccc(CO)c(Cl)c2)c1
Result string: > 73.8 µM

Please look at the items below and tell me TGI for each one, in order.
1. Cc1cccc2c1Oc1cc(Cl)ccc1C2NC(=O)CCN1CCCCC1 (stereo not drawn)
2. N/C(=N\O)c1ncc(-c2ccc(C(F)(F)F)cc2)c(NC2CCCCCC2)n1

Result string:
1: 35 µM; 2: 6.68 µM

###

- System: ACHN renal
- Run Description: NCI tumour cell line growth inhibition, 48 h
Measured Property: TGI

A selection of reference data follows.
Query string: Reported TGI for Cc1cccc(CN(C)c2ccc(CO)c(Cl)c2)c1 : what is it?
Result string: > 100 µM

Query string: Fill in: TGI of CC(C)(C)OC(=O)N1C(C2=COc3ccccc3O2)=COc2ccccc21 is ___
Result string: 75.3 µM

Query string: Which measured TGI value corresponds to Nc1nnc2nc(CC(=O)/C=C/c3ccccc3)c(=O)[nH]n12 ?
Result string: > 100 µM

Query string: Name the recorded TGI for COC(=O)[C@]12CC[C@@H](C)[C@H](C)[C@@H]1C1=CC[C@@H]3[C@@]4(C)C[C@@H](OC(=O)c5ccco5)[C@H](O)[C@@](C)(CO)[C@@H]4[C@H](O)C[C@@]3(C)[C@]1(C)CC2 .
Result string: 7.69 µM

Query string: Need TGI of C=C1CC(OC(C)=O)/C=C(/C)CCC(C(C)(C)O)CC1O (stereo not given) , thanks.
Result string: > 100 µM

Would you mind giving TGI for every compound in the list below?
1. NNC(N)=Nc1cccc2ccccc12
2. CCCNc1nc(N(C)O)nc(N(C)O)n1

Result string:
> 100 µM
> 100 µM

I have 4 compounds here; please give me TGI for each one.
1. NC(=O)c1cnc2sc3ccccc3n2c1=O
2. O=C(N/N=C(/COc1cccc(Cl)c1)N=Cc1ccncc1)c1ccncc1
3. COc1ccc(/C=C2/C(=O)N(C(=O)c3ccccc3O)N=C2C)cc1OC
4. O=C1CCCCC/C=C2/CC[C@H](Sc3ccccc3)[C@@H]12

Result string:
1: > 100 µM; 2: > 100 µM; 3: > 100 µM; 4: > 100 µM

Consider the following items and state reported TGI for each.
1. NS(=O)(=O)c1ccc(NNC(=O)c2cccc3c(=O)c4ccccc4[nH]c23)cc1
2. Clc1cc2nc(C3CCCO3)[nH]c2cc1Cl (stereo not given)
3. Cc1c2ccccc2c(C)c2c3c(ccc12)C(=O)C=CC3=O

Result string:
["> 100 µM", "> 100 µM", "33.3 µM"]
